target: integrin αvβ3; experiment: competition fluorescence polarisation, 5 nM FITC-LC-GRGDSP tracer; n2
Sequence (P06756 31-1048, chain 1 of 2): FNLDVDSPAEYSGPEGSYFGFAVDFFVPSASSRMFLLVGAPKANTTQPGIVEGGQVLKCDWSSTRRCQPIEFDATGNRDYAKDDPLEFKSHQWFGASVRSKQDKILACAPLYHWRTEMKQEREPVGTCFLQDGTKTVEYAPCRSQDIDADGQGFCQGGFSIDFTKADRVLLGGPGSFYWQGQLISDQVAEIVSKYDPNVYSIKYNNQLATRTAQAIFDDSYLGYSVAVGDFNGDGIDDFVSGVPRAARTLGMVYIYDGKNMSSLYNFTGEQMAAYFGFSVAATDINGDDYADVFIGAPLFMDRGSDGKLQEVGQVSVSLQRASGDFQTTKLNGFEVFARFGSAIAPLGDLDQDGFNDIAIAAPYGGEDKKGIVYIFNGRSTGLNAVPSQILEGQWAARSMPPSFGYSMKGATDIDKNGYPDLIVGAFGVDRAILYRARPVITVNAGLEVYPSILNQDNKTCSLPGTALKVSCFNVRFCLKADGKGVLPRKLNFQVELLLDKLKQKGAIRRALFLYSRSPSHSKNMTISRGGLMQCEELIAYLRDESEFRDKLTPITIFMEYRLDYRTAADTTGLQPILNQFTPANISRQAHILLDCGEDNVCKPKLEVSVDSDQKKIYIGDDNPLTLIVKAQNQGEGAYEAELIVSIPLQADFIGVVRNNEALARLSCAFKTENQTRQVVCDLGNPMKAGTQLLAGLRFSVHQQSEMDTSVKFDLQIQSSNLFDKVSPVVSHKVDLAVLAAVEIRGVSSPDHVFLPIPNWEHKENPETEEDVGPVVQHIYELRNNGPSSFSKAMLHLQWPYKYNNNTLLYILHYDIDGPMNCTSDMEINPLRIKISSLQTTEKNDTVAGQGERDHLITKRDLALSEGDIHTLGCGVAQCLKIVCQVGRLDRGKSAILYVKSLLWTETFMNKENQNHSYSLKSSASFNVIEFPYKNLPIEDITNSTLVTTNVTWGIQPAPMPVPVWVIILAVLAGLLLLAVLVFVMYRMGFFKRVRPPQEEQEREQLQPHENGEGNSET
Sequence (P05106 27-788, chain 2 of 2, further chain): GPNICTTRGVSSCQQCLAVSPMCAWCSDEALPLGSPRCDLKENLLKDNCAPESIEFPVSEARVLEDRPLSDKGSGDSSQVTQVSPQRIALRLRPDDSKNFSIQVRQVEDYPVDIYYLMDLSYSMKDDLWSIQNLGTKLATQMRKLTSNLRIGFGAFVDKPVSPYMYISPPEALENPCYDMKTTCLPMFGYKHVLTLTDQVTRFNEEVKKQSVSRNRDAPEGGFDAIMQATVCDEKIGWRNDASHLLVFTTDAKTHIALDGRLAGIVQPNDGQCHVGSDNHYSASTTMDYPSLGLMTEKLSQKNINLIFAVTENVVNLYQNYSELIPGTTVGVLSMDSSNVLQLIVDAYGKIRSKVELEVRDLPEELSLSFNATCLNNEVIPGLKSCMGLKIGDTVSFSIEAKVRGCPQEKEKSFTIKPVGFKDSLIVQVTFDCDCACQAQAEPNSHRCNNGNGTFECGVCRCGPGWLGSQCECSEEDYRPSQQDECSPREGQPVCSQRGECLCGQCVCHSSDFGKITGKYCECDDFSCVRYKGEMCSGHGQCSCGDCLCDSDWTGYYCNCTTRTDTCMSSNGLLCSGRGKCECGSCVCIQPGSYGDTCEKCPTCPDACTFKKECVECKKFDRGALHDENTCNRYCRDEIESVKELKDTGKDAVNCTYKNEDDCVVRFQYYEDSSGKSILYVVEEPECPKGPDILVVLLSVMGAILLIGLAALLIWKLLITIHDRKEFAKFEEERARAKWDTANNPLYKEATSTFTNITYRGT
Starred links: 1 amine or outer side, 2 acyl side, 3 side chain; linkers in the order of their positions; H or OH if unused. Positions of bridges follow the written chain, without caps; N, C: chain ends. Non-standard residues stand in square brackets, D forms with d. No end group written: not given here. TBMB = c1c(C[*:1])cc(C[*:3])cc1C[*:2]; Dap(Me) = CNC[C@H](N)C(=O)O
reported-metric: Ki

**Query** Answer with reported Ki of Ac-A[Dap(Me)]ILRPN[Dap(Me)]DLDGR[Dap(Me)]A (linker 2-8-14 via TBMB) [BCY00009181]
**Result** > 18.6 µM
